- System: CVB-3
- Experimental protocol: Anticoxsackieviral HI-HeLa Cell Culture Assay (XTT dye reduction)
- Assay type: cell-based, Coxsackie strain B-3 (CVB-3)
- Condition context: HI-HeLa cells infected with CVB-3, m.o.i. 0.08, one day
Observed property: EC50

Ask | Write down the reported EC50 of `CC(C)C[C@H](NC(=O)OCc1ccccc1)C(=O)N[C@@H](Cc1ccccc1)C(=O)N[C@H](/C=C/c1ccccn1)CCC(N)=O` , test system: CVB-3.
Reply | > 100 µM

Ask | Write down the reported EC50 of `CC(C)C[C@H](NC(=O)OCc1ccccc1)C(=O)N[C@@H](Cc1ccccc1)C(=O)N[C@H](/C=C/C(=O)N1CC=CC1)CCC(N)=O` , test system: CVB-3.
Reply | > 100 µM

Ask | Write down the reported EC50 of Cc1cc(CCCCCOc2c(Cl)cc(C3=NCCO3)cc2Cl)on1 [WIN 54954, reference compound] , test system: CVB-3.
Reply | > 100 µM

----------
Can you tell me kinact/KI for the items I'm about to list?
- System name: Recombinant Rhinovirus 3C protease (RVP) serotype-14 (Human rhinovirus 14, UniProt P03303)
- Construct: Recombinant Rhinovirus 3C proteases from serotypes 14, 16, 2 or 89; made in house
- Sequence (P03303 1538-1719): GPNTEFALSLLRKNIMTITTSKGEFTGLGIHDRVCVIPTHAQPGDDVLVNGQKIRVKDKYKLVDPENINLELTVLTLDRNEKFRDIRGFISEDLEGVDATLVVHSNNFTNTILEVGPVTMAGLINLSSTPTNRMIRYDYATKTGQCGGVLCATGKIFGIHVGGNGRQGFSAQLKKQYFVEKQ
- Experimental protocol: Inhibition of Rhinovirus Protease (fluorescence resonance energy transfer assay), serotype 14
- Format: biochemical, human rhinovirus (HRV)
- Condition context: pH 7.6, read-out: kobs/I
Be sure to follow the number with its unit.

Ask | Given the entry CCOC(=O)/C=C/[C@H](CCC(N)=O)NC(=O)[C@H](Cc1ccccc1)NC(=O)[C@@H](NC(=O)OCc1ccccc1)C(C)O (some centres unmarked) , report its measured kinact/KI.
Reply | 38900 M⁻¹ s⁻¹

Ask | Given the entry `COC(=O)/C=C\[C@H](CCC(N)=O)NC(=O)[C@H](Cc1ccccc1)NC(=O)[C@H](CC(C)C)NC(=O)OCc1ccccc1` , report its measured kinact/KI.
Reply | 2400 M⁻¹ s⁻¹

Ask | Given the entry CCOC(=O)C=CC(CCC(N)=O)NC(=O)C(Cc1ccc(C)cc1)NC(=O)C(CC(C)C)NC(=O)OCc1ccccc1 (centres unmarked) , report its measured kinact/KI.
Reply | 59400 M⁻¹ s⁻¹

Ask | Given the entry `CC(C)C[C@H](NC(=O)OCc1ccccc1)C(=O)N[C@@H](Cc1ccccc1)C(=O)N[C@H](/C=C/C(=O)N1CCc2cccc(Cl)c21)CCC(N)=O` , report its measured kinact/KI.
Reply | 5430 M⁻¹ s⁻¹

Ask | Given the entry `CCOC(=O)/C=C/[C@H](CCC(N)=O)NC(=O)[C@H](Cc1ccccc1)NC(=O)[C@H](CC(C)C)NC(=O)OCc1ccncc1` , report its measured kinact/KI.
Reply | 12000 M⁻¹ s⁻¹

Ask | Given the entry COc1ccc2c(c1)CCN2C(=O)C=CC(CCC(N)=O)NC(=O)C(Cc1ccccc1)NC(=O)C(CC(C)C)NC(=O)OCc1ccccc1 (centres unmarked) , report its measured kinact/KI.
Reply | 3440 M⁻¹ s⁻¹

Ask | Given the entry `CCOC(=O)/C=C/[C@H](CCC(N)=O)NC(=O)[C@H](Cc1ccccc1)NC(=O)[C@H](CC(C)C)NC(=O)c1ccc(Oc2ccccc2)cc1` , report its measured kinact/KI.
Reply | 8000 M⁻¹ s⁻¹

Ask | Given the entry `CC(C)C[C@H](NC(=O)OCc1ccccc1)C(=O)N[C@@H](Cc1ccccc1)C(=O)N[C@H](/C=C/C(=O)N(C)C)CCC(N)=O` , report its measured kinact/KI.
Reply | 1300 M⁻¹ s⁻¹
